Attribution: the Human Domainome abundance scans (Beltran et al. 2025)

B1: F-BAR and double SH3 domains protein 1, residues 467 to 528; numbered along this chain, Q86WN1 (parent)
chain: RALPCPAHVVFRYQAGREDELTITEGEWLEVIEEGDADEWVKARNQHGEVGFVPERYLNFPD

Variants of: B1
ASSAY NOTES: abundance fitness (aPCA) (normalised: wild type 0, dead -1); higher = more abundant; growth selection in yeast, the domain comes from the species named
TEST CONTEXT: Homo sapiens
OBSERVED PROPERTY: abundance fitness

Observe how each entry below is paired with its result.
A37D : -0.048
E27Y : -0.825
W28S : -0.014
I32V : -0.07
I23K : -0.718
A7E : -0.742
A37W : -0.044
V41G : -0.72
H8V : -0.349
E34F : 0.127

input: Give its abundance fitness value. Item: H8D
output: -0.282
